Data origin: ChEMBL document CHEMBL1121616

List of Change values.
- Species: Cavia porcellus
- run description: Compound was evaluated for mean percent change from control contractions of isolated guinea pig ilea produced by Prostaglandin E2 (PGE2) at a concentration of 10 ug/mL
- Assay type: functional
Non-standard residues stand in square brackets, D forms with d. Residues, ends and D or L forms follow the SMILES beside them. NMeF = CN[C@@H](Cc1ccccc1)C(=O)O; Sar = CNCC(=O)O

compound	result unit	Change
CN(C(=O)[C@H](Cc1ccccc1)NC(=O)[C@@H]1CCCN1C(=O)[C@H](CO)NC(=O)[C@H](Cc1ccccc1)NC(=O)CNC(=O)[C@@H]1CCCN1C(=O)[C@@H]1CCCN1C(=O)[C@@H](N)CCCN=C(N)N)[C@@H](CCCN=C(N)N)C(=O)O	%	7
CN(C(=O)CNC(=O)[C@@H]1CCCN1C(=O)[C@@H]1CCCN1C(=O)[C@@H](N)CCCN=C(N)N)[C@@H](Cc1ccccc1)C(=O)N[C@@H](CO)C(=O)N1CCC[C@H]1C(=O)N[C@@H](Cc1ccccc1)C(=O)N[C@@H](CCCN=C(N)N)C(=O)O (H-RPPG[NMeF]SPFR-OH)	%	1
CN(C(=O)[C@@H]1CCCN1C(=O)[C@H](CO)NC(=O)[C@H](Cc1ccccc1)NC(=O)CNC(=O)[C@@H]1CCCN1C(=O)[C@@H]1CCCN1C(=O)[C@@H](N)CCCN=C(N)N)[C@@H](Cc1ccccc1)C(=O)N[C@@H](CCCN=C(N)N)C(=O)O (H-RPPGFSP[NMeF]R-OH)	%	-88
CN(CC(=O)N[C@@H](Cc1ccccc1)C(=O)N[C@@H](CO)C(=O)N1CCC[C@H]1C(=O)N[C@@H](Cc1ccccc1)C(=O)N[C@@H](CCCN=C(N)N)C(=O)O)C(=O)[C@@H]1CCCN1C(=O)[C@@H]1CCCN1C(=O)[C@@H](N)CCCN=C(N)N (H-RPP[Sar]FSPFR-OH)	%	-85
